protocol_description: Tmax in C57BL/6 mouse at 40 mg/kg, po formulated in 30% HP-beta-CD
Type: ADME, organism-based
Design: dose 40 mg/kg, route oral
assay_setup: in vivo
measure: Tmax (min)
Numeric only. Scale: min

Exercise: Which Tmax value belongs to O=C1c2ccccc2-n2c1nc1c(c2=O)CCCC1 ?
Key: 30

---

Examples of molecules with documented Papp A→B at 1 h follow.
protocol_description: Permeability across apical to basolateral side in human Caco2 cells incubated for 1 hr at 37 degC by HPLC-MS/MS method
Assay type: ADME, cell-based
assay_setup: Caco-2
Numeric only. Scale: ×10⁻⁶ cm/s

The examples below pair each entry with its known result.
[[record]]
smiles_notation = "CCOC(=O)c1ccc2c(c1)C(=O)c1nc3ccccc3c(=O)n1-2"
measure = "Papp A→B at 1 h"
measured_number = 4.2

[[record]]
smiles_notation = "O=C1c2cc(OC(F)(F)F)ccc2-n2c1nc1ccccc1c2=O"
measure = "Papp A→B at 1 h"
measured_number = 22

[[record]]
smiles_notation = "O=C1c2ccccc2-n2c1nc1c(c2=O)CCCC1"
measure = "Papp A→B at 1 h"
measured_number = 85.4


Exercise: Which Papp A→B at 1 h value belongs to O=C1C2=Nc3ccccc3CN2c2ccc(Cl)cc21 ?
Key: 60.8

Exercise: Query O=C1c2cc(Cl)ccc2-n2c1nc1ccc(F)cc1c2=O next
Key: 2.2

Exercise: Query O=C1c2cc(F)ccc2-n2c1nc1ccccc1c2=O next
Key: 66.6

Exercise: Query O=C1c2cc(Cl)ccc2-n2c1nc1ncccc1c2=O next
Key: 73.8

Exercise: Query O=C1c2ccccc2-n2c1nc1ccccc1c2=O next
Key: 60.1

Exercise: Query O=C1c2ccc(Cl)cc2-n2c1nc1ccccc1c2=O next
Key: 0.4

---

protocol_description: AUC (0 to infinity) in C57BL/6 mouse at 40 mg/kg, po formulated in 30% HP-beta-CD
Type: ADME, organism-based
Design: time infinity, dose 40 mg/kg, route oral
assay_setup: plasma
measure: AUC(0-inf) (ng·h/mL)
Numeric only. Scale: ng·h/mL

Exercise: Which AUC(0-inf) value belongs to O=C1c2ccccc2-n2c1nc1c(c2=O)CCCC1 ?
Key: 2570

---

protocol_description: Volume of distribution in Sprague-Dawley rat at 5 mg/kg, iv
Assay type: ADME, organism-based
Parameters: dose 5 mg/kg, route intravenous
assay_setup: in vivo
Examples of compounds with documented Vd follow.
Numeric only. Scale: L/kg

The examples below pair each entry with its known result.
[[record]]
smiles_notation = "O=C1c2ccccc2-n2c1nc1c(c2=O)CCCC1"
measured_number = 1.62

[[record]]
smiles_notation = "O=C1c2cc(C(=O)N3CCCCC3)ccc2-n2c1nc1ccccc1c2=O"
measured_number = 6.21


Exercise: Which Vd value belongs to O=C1C2=Nc3ccccc3CN2c2ccc(Cl)cc21 ?
Key: 11.7

---

protocol_description: Cmax in C57BL/6 mouse at 40 mg/kg, po formulated in 0.5% methylcellulose
Type: ADME, organism-based
Set-up: dose 40 mg/kg, route oral
assay_setup: in vivo
measure: Cmax (ng/mL)
Numeric only. Scale: ng/mL

Exercise: Which Cmax value belongs to O=C1c2ccccc2-n2c1nc1c(c2=O)CCCC1 ?
Key: 1930

---

Test system: Mycobacterium tuberculosis
protocol_description: Antitubercular activity against Mycobacterium tuberculosis H37Rv incubated at 37 degC for 14 days in presence of 40% human serum by microplate alamar blue assay
Type: functional
assay_setup: 336 h
Examples of molecules with documented MIC follow.
Numeric only. Scale: µg/mL

Exercise: Which MIC value belongs to O=C1c2ccccc2-n2c1nc1ccc(Br)cc1c2=O ?
Key: 0.5

Exercise: Query O=C1c2ccccc2-n2c1nc1c(c2=O)CCCC1 next
Key: 1

---

protocol_description: Cmax in Sprague-Dawley rat at 20 mg/kg, po
Assay type: ADME, organism-based
Design: dose 20 mg/kg, route oral
assay_setup: in vivo
measure: Cmax (ng/mL)
Numeric only. Scale: ng/mL

[[record]]
smiles_notation = "O=C1c2ccccc2-n2c1nc1c(c2=O)CCCC1"
measure = "Cmax"
measured_number = 2030

[[record]]
smiles_notation = "O=C1C2=Nc3ccccc3CN2c2ccc(Cl)cc21"
measure = "Cmax"
measured_number = 50


Read the next record carefully.
Exercise: Which Cmax value belongs to O=C1c2cc(C(=O)N3CCCCC3)ccc2-n2c1nc1ccccc1c2=O ?
Key: 30

---

protocol_description: AUC (0 to infinity) in C57BL/6 mouse at 40 mg/kg, po
Assay type: ADME, organism-based
Parameters: dose 40 mg/kg, route oral, time infinity
assay_setup: plasma
measure: AUC(0-inf)
Number first, unit second: that is the form wanted.

Exercise: Which AUC(0-inf) value belongs to O=C1c2cc(C(=O)N3CCCCC3)ccc2-n2c1nc1ccccc1c2=O ?
Key: 1300 ng·h/mL

---

protocol_description: Clearance in Sprague-Dawley rat at 5 mg/kg, iv
Format: ADME, organism-based
Set-up: dose 5 mg/kg, route intravenous
assay_setup: in vivo
measure: clearance (mL/min/kg)
Numeric only. Scale: mL/min/kg

Exercise: Which clearance value belongs to O=C1c2ccccc2-n2c1nc1c(c2=O)CCCC1 ?
Key: 5.67

Exercise: Query O=C1C2=Nc3ccccc3CN2c2ccc(Cl)cc21 next
Key: 92.8

Exercise: Query O=C1c2cc(C(=O)N3CCCCC3)ccc2-n2c1nc1ccccc1c2=O next
Key: 81

---

Examples of molecules with documented log10(solubility) follow.
protocol_description: Solubility in simulated gastric fluid at pH 1.5 by HPLC method
Type: physicochemical
Plainly stated, the numbers are log10 of solubility given in µM.

The examples below pair each entry with its known result.
[[record]]
smiles_notation = "O=C1c2ccccc2-n2c1nc1c(c2=O)CCCC1"
measured_number = 1.72

[[record]]
smiles_notation = "O=C1c2cc(Br)ccc2-n2c1nc1ccncc1c2=O"
measured_number = 1.65

[[record]]
smiles_notation = "O=C1c2cc(OC(F)(F)F)ccc2-n2c1nc1ccccc1c2=O"
measured_number = 0.18

[[record]]
smiles_notation = "O=C1c2ccc(Cl)cc2-n2c1nc1ccccc1c2=O"
measured_number = 1.86


Exercise: Which log10(solubility) value belongs to O=C1c2cc(F)ccc2-n2c1nc1ccccc1c2=O ?
Key: 0.93

Exercise: Query O=C1c2cc([N+](=O)[O-])ccc2-n2c1nc1ccccc1c2=O next
Key: 0.71

Exercise: Query O=C1c2ccccc2-n2c1nc1ccccc1c2=O next
Key: 1.07

Exercise: Query O=C1c2cc(Br)ccc2-n2c1nc1ccccc1c2=O next
Key: 0.36

Exercise: Query O=C1c2cc(Cl)ccc2-n2c1nc1cc(F)ccc1c2=O next
Key: 0.40

Exercise: Query CCOC(=O)c1ccc2c(c1)C(=O)c1nc3ccccc3c(=O)n1-2 next
Key: 0.18

Exercise: Query O=C1c2cc(C(=O)N3CCCCC3)ccc2-n2c1nc1ccccc1c2=O next
Key: 1.01

Exercise: Query O=C1C2=Nc3ccccc3CN2c2ccc(Cl)cc21 next
Key: 1.90

Exercise: Query O=C1c2cc(Cl)ccc2-n2c1nc1ncccc1c2=O next
Key: 0.78

Exercise: Query O=C1c2cc(Cl)ccc2-n2c1nc1ccccc1c2=O next
Key: 1.43

---

Tested on: Vero
protocol_description: Cytotoxicity against african green monkey Vero cells
Format: cell-based, Chlorocebus sabaeus
assay_setup: Chlorocebus sabaeus, Vero; read-out: IC50
We label by threshold. Values of IC50 strictly beneath 9 µg/mL are Y. Values of 9 µg/mL and up are N.

These recorded examples may help you get a feel for the data.
[[record]]
compound = "O=C1c2ccc(N3CCCCC3)cc2-n2c1nc1ncccc1c2=O"
class = "N"

[[record]]
compound = "O=C1c2cc(C(=O)N3CCOCC3)ccc2-n2c1nc1ccccc1c2=O"
class = "N"

[[record]]
compound = "O=C1C2=Nc3ncccc3CN2c2ccccc21"
class = "Y"

[[record]]
compound = "O=C1c2ccc(N3CCC(O)C3)cc2-n2c1nc1ccccc1c2=O (configuration not stated)"
class = "N"

[[record]]
compound = "O=C1c2ccccc2-n2c1nc1ccncc1c2=O"
class = "Y"

[[record]]
compound = "O=C1C2=Nc3ncccc3CN2c2ccc(OC(F)(F)F)cc21"
class = "Y"

[[record]]
compound = "CCN(CCN(C)C)c1ccc2nc3n(c(=O)c2c1)-c1ccc(Cl)cc1C3=O"
class = "N"

[[record]]
compound = "O=C1c2ccccc2-n2c1nc1c(c2=O)CCCC1"
class = "Y"

[[record]]
compound = "O=C1C2=Nc3ccccc3CN2c2ccccc21"
class = "N"

[[record]]
compound = "O=C1c2cc([N+](=O)[O-])ccc2-n2c1nc1ncccc1c2=O"
class = "Y"


Exercise: # check: IC50 < 9 µg/mL for O=C1c2cc(OC(F)(F)F)ccc2-n2c1nc1ncccc1c2=O
Key: Y

Exercise: Query O=C1c2cc(Cl)ccc2-n2c1nc1ccc(F)cc1c2=O next
Key: N

Origin of the recorded values: ChEMBL document CHEMBL2346548
